# Test system: IGROV1 ovarian
# methodSummary: NCI-60 one-dose screen, 48 h (100 = growth as untreated, 0 = no growth, -100 = all killed)
# measurementConditions: 10 µM unless noted
The panel holds about 83,000 compounds, 20% with a hit somewhere; the sample as a whole holds those more often. Calls of active or inactive are those of the source. The calls were made as follows: active = growth percent below 10; inactive = the rest.
Catalogue of compounds with associated growth

// below: answered compounds
COc1ccc(Cc2nnc(Nc3nc4ccccc4s3)s2)cc1
94% (inactive)
CS(=O)(=O)Nc1cncc(-c2ccc3ncnc(Nc4ccc(F)c(Cl)c4)c3c2)c1
-17.2% (active)
Cc1[nH]c(C(=O)Nc2cccc(OC3CCNCC3)c2)c(Cl)c1Cl
60.6% (inactive)
N=C(N)c1ccc(-c2ccc(-c3ccc(Cl)cc3)o2)o1
37.7% (inactive)
CCN(CC)CCCC(C)Nc1ccc2cc(OC)ccc2n1 (stereo not given)
105% (inactive)
Fc1ccc(CNc2c3ccccc3nc3ccccc23)cc1
21.9% (inactive)
N#Cc1c(-c2ccccc2)nc2c(c(-c3ccccc3)nn2-c2ccccc2)c1-c1ccc(N2CCOCC2)cc1
87.7% (inactive)
N#Cc1nc2c(S(=O)(=O)c3ccccc3)c(N)n(Cc3cccnc3)c2nc1C#N
46.1% (inactive)

Q: // lookup growth for Cc1cc(F)ccc1S(=O)(=O)Nc1cc(-c2c(O)ccc3ccccc23)c(O)c2ccccc12
A: 27.6% (inactive)

Q: // lookup growth for C=CC(=O)N1CCN(c2ccc3cccc(NC(=O)c4cnc(C)cn4)c3n2)CC1
A: 9.7% (active)

Q: // lookup growth for Cn1c(=O)c2c(c3ccccc31)OC(N)=C(C#N)C21C(=O)c2ccccc2C1=O
A: 92.4% (inactive)

---

Catalogue of compounds with associated growth
# System: PC-3 prostate
# methodSummary: NCI-60 one-dose screen, 48 h (100 = growth as untreated, 0 = no growth, -100 = all killed)
# measurementConditions: 10 µM unless noted
The panel holds about 83,000 compounds, 20% with a hit somewhere; the sample as a whole holds those more often. The source made the active and inactive calls. How the source made its calls: active means growth percent below 10; inactive means the rest.

// below: answered compounds
CC1(C)CC[C@]2(C(=O)N3CCOCC3)CC[C@]3(C)C(=CC[C@@H]4[C@@]5(C)C/C(=C/c6ccncc6)C(=O)C(C)(C)[C@@H]5CC[C@]43C)[C@@H]2C1
10.9% (inactive)
CN(CCC#N)c1ccc(/C=C2\NC(=O)NC2=O)cc1
94.8% (inactive)
Cn1cc(-c2ccc3cc(-c4ccc(CC(=O)Nc5cc(C(C)(C)C)on5)cc4)cnc3c2)cn1
21.1% (inactive)

# input for lookup
Q: // lookup growth for CC(=O)c1cc(-c2ccccc2N)n(-c2ccc3c(c2)OCO3)c1C
A: 30.1% (inactive)

---

# System: EKVX NSCLC
# methodSummary: NCI-60 one-dose screen, 48 h (100 = growth as untreated, 0 = no growth, -100 = all killed)
# measurementConditions: 10 µM unless noted
Compounds without any hit were thinned out: in the full panel of roughly 83,000, 20% have a hit.
readoutKind: growth (%)
Respond with the bare value in %.

CC(C)(C)c1cc(C=Nc2cccc(C(F)(F)F)c2)c(O)c(C(C)(C)C)c1
107
N#Cc1c(-c2ccccc2)cc(-c2ccccc2)n(CCCC(=O)NO)c1=O
27.1
Cc1cc(C)cc(Nc2ccc([N+](=O)[O-])c(NCCN3CCOCC3)n2)c1
66
CN1CCN(CCOc2ccc(-c3cnc4c(-c5ccc(C(F)(F)F)cc5)cnn4c3)cc2)CC1
60.1
O=C(/C=C\c1ccco1)/C=C/c1ccco1
99.5

# input for lookup
Q: // lookup growth for Cn1cc(/C=C2/C(=O)Nc3ccccc32)c2ccccc21
A: 78.2

---

# Test system: HOP-92 NSCLC
# methodSummary: NCI-60 one-dose screen, 48 h
# measurementConditions: 10 µM unless noted
About 83,000 compounds went through this panel and 20% of them were active in at least one assay; those are over-represented in the sample as a whole. Activity calls are given as the source filed them. The calls were made as follows: active = growth percent below 10; inactive = the rest.
# output must be one of active, inactive

Reference set (2 entries):
COc1cc(C(=O)c2c(-c3ccccc3)oc3c(OC)cccc23)cc(OC)c1O
inactive
Cc1ccc(S(=O)(=O)n2cc(C3C(Cl)C(=O)N3c3ccc(N4CCOCC4=O)cc3)c3ccccc32)cc1 (stereo not given)
inactive

Q: Call for entry C=C1C(=O)O[C@H]2[C@H]1CC/C(Cn1cc(-c3cc(C(F)(F)F)cc(C(F)(F)F)c3)nn1)=C\CC[C@@]1(C)O[C@@H]21 :
A: active

Q: Call for entry COc1ccc(C/C(C)=C(/c2ccc(OCCN3CCCCCC3)cc2)c2ccc(OC(=O)NCc3ccccc3)cc2)cc1 :
A: inactive

Q: Call for entry COc1ccc(OC)c(-c2cn3nc(-c4c[nH]c5ccc(Br)cc45)sc3n2)c1 :
A: inactive

---

# Test system: OVCAR-3 ovarian
# methodSummary: NCI-60 one-dose screen, 48 h
# measurementConditions: 10 µM unless noted
# Protocol: Growth inhibition of the OVCAR-3 human tumor cell line is measured as a screen for anti-cancer activity. Cells are grown in 96 well plates and exposed to the test compound for 48 hours. Compounds are tested at a single concentration, which is 10^-5 M for most compounds. The reported endpoint is percent growth (GI% or GIPRCNT), where numbers from 0 - 100% represent growth inhibition, and numbers from -100% - 0 represent cell death. For example, a value of 40 represents 60% growth inhibition. […]
Compounds without any hit were thinned out: in the full panel of roughly 83,000, 20% have a hit. The source made the active and inactive calls. How the source made its calls: active means growth percent below 10; inactive means the rest.
# output must be one of 1 = active, 0 = inactive

Reference set (10 entries):
CC[C@]12C=CCN3CC[C@@]4(c5ccc(OC)cc5N(C)[C@H]4[C@@](O)(C(=O)OC)[C@@H]1OC(=O)CCCN1CCOCC1)[C@@H]32
0
COc1ccc2nc3ccccc3c(NCc3ccc(F)cc3)c2c1
0
c1ccc(CNc2ccc3nc(CCC4CCCCC4)[nH]c3c2)cc1
0
COc1ccc(C(c2cc(OC)c(OC)c(OC)c2)N2CCCC2)cc1 (centres undefined)
0
CC(C)CN1CC(C(=O)Nc2ccc3c(c2)-c2ccccc2C3)CC1=O (centres undefined)
0
CC(C)c1ccc(-n2c(=S)[nH]c3sc4c(c3c2=O)CCC(=O)C4)cc1
0
COc1ccc2c(c1)c(-c1ccc(-c3cn(C)c4ccc(OC)cc34)[nH]1)cn2C
1
CCC(CC)(N(CC(=O)O)CC(=O)O)C(CC)(CC)N(CC(=O)O)CC(=O)O
0
COc1cc2nc(Nc3cccc(F)c3)nc(Nc3cc(C)[nH]n3)c2cc1OC
1
Cc1ccccc1CNc1c2ccccc2nc2ccccc12
0

Q: Call for entry Cc1cccc(NC(=O)CSc2nc3ccc([N+](=O)[O-])cc3[nH]2)c1 :
A: 0

Q: Call for entry COc1cccc(Nc2ccnc3[nH]c4ccc([N+](=O)[O-])cc4c23)c1 :
A: 0

Q: Call for entry Cc1ccc2[nH]c(=O)c3c(c2c1)OC(N)=C(C#N)C31C(=O)c2cccc3cccc1c23 (centres undefined) :
A: 0

Q: Call for entry COc1cc(/C=C2\C(=O)N(c3c(Cl)cccc3Cl)c3ccccc32)cc(OC)c1OCCCCCCn1c2ccccc2c(=O)c2ccccc21 :
A: 0

Q: Call for entry Cn1cccc1/C=C1\C(=O)Nc2ccccc21 :
A: 0

---

# Test system: IGROV1 ovarian
# methodSummary: NCI-60 one-dose screen, 48 h
# measurementConditions: 10 µM unless noted
This is part of a sample that, as a whole, favours compounds with a hit. Of some 83,000 tested, about 20% had one in any assay. Active and inactive are the calls of the source. How the source made its calls: active means growth percent below 10; inactive means the rest.
# output must be one of active, inactive

C=CC(C)(O)CC/C=C(\CO)C(=O)OC1C(C)OC(O[C@](C)(C=C)CC/C=C(\CO)C(=O)O[C@H]2C[C@@]3(C(=O)OC4OC(CO)C(O)C(O)C4OC4OC(C)C(OC5OC(CO)C(O)C5O)C(OC5OC(CO)C(O)C(O)C5O)C4O)C(CC2(C)C)C2=CCC4[C@@]5(C)CC[C@H](OC6OC(COC7OC(C)C(O)C(O)C7OC7OCC(O)C(O)C7O)C(O)C(O)C6NC(C)=O)C(C)(C)C5CC[C@@]4(C)[C@]2(C)C[C@H]3O)C(O)C1O (some centres not stated)
active

Please look at the following compound next.
Q: Call for entry COc1ccc(C2C3=C(COC3=O)N(CCO)c3cc4c(cc32)OCCO4)cc1OC (configuration not stated) :
A: inactive

---

# Test system: A549/ATCC NSCLC
# methodSummary: NCI-60 one-dose screen, 48 h
# measurementConditions: 10 µM unless noted
Compounds without any hit were thinned out: in the full panel of roughly 83,000, 20% have a hit. Calls of active or inactive are those of the source. Rule for the calls: active = growth percent below 10; inactive = the rest.
# output must be one of T (active), F (inactive)

O=C(N/N=C/c1ccc(O)cc1O)c1ccc(Nc2ccnc(C(F)(F)F)c2)cc1
F
CC1COCC(C)N1C1=C(Cl)C(=O)c2ccccc2C1=O (configuration not stated)
F
Cc1ncc(C(=O)Nc2ccc(CN3CCN(C)CC3)c(C(F)(F)F)c2)cc1C#Cc1cnc(N)c2cnccc12
F

Q: Call for entry Cc1ccc(/C=C2\CN(C(=O)C(Cl)Cl)C/C(=C\c3ccc(C)cc3)C2=O)cc1 :
A: T

Q: Call for entry CCn1cc(C(=O)N/N=C/c2ccc(Br)cc2)c(=O)c2cc(F)c(N3CCNC(C)C3)c(F)c21 (configuration not stated) :
A: F

Q: Call for entry CCCCCCC(CCCC)COC(=O)c1ccc(Cl)cc1 (configuration not stated) :
A: F

Q: Call for entry N=C(N)c1ccc(-c2ccc(-c3ccc(Cl)cc3)o2)o1 :
A: T

Q: Call for entry CC[C@@H](c1ccc2cc(OC)ccc2c1)C(C)(C)C(=O)F :
A: F
